Recorded measurements of pIC50, one per entry
Molecular target: kappa opioid receptor (KOR) (Homo sapiens)
Sequence (P41145 whole entry): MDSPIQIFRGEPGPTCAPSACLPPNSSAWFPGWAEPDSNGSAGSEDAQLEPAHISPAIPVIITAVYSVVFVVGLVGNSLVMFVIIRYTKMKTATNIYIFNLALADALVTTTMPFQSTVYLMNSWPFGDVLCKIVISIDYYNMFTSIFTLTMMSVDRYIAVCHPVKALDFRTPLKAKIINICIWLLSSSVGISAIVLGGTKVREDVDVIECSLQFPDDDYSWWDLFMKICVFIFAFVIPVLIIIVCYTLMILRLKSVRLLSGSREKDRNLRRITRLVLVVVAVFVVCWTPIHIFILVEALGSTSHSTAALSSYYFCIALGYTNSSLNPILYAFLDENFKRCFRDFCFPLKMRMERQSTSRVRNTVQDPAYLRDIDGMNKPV
Experiment: OPRKappa 1 Tango B-Arrestin Assay, antagonist mode (Tango OPRK1-bla U2OS cells, U50488 EC80 challenge)
Conditions: antagonist mode, Tango OPRK1-bla U2OS cells, 6 nM U50488 challenge
pIC50: −log10 of the molar value.

COMPOUND	pIC50
CCc1cc(F)c2nc(N3CCN(C[C@H]4CCCO4)C[C@H]3C)c(-c3nc(C)no3)c(C)c2c1 [Compound 30]	8.00 to 9.00
CCc1cc(-c2ccn(C)n2)c2nc(N3CCN(C(=O)C4CCOCC4)C[C@H]3C)c(-c3ccn(C)n3)c(C)c2c1 [Compound 101]	< 6.00

Query :: Requested read-out pIC50, target or system kappa opioid receptor (KOR) (Homo sapiens), entry CCc1cc(F)c2nc(N3CCN(C(=O)CN(C)C)C[C@H]3C)c(-c3cc(C)no3)c(C)c2c1 [Compound 181]
Result :: 7.00 to 8.00

Query :: Identify the measured pIC50 of CCc1cc(C#N)c2nc(N3CCC(N4CCOC[C@H]4C)CC3)c(-c3ccn(C)n3)c(C)c2c1 [Compound 82] for kappa opioid receptor (KOR) (Homo sapiens).
Result :: 7.00 to 8.00

Query :: What measured pIC50 is associated with CCc1cc(F)c2nc(N3CCN(C(=O)CN(CC)CC)C[C@H]3C)c(-c3ccn(C)n3)c(C)c2c1 [Compound 176] on kappa opioid receptor (KOR) (Homo sapiens)?
Result :: 8.00 to 9.00

Query :: Fill in the recorded pIC50 for this compound, with kappa opioid receptor (KOR) (Homo sapiens) as test system: CCc1cc(F)c2nc(N3CCC(N[C@H]4CCOC4)CC3)c(-c3cc(C)n(C)n3)c(C)c2c1 [Compound 18]
Result :: 8.00 to 9.00

Query :: Please tell me: pIC50 of CCc1cc(F)c2nc(N3CC[C@@H]4[C@@H](CCN4[C@@H]4CCOC4)C3)c(-c3ccn(C)n3)c(C)c2c1 [Compound 123] , system kappa opioid receptor (KOR) (Homo sapiens)?
Result :: 7.00 to 8.00

Query :: Provide value of pIC50 for this record tested with kappa opioid receptor (KOR) (Homo sapiens): CCc1cc(F)c2nc(N3CCN(C4CCOCC4)C[C@@H]3C)c(-c3nc(C)no3)c(C)c2c1 (single isomer, unassigned) [Compound 28]
Result :: 8.00 to 9.00

Query :: Hi! What's the reported pIC50 for CCc1cc(F)c2nc(N3CC[C@H](N[C@@H]4CCOC4)[C@H](C)C3)c(-c3ccn(C)n3)c(C)c2c1 [Compound 107] on kappa opioid receptor (KOR) (Homo sapiens)?
Result :: 7.00 to 8.00

Query :: Value wanted: pIC50 (kappa opioid receptor (KOR) (Homo sapiens)) of entry CCc1cc(F)c2nc(N3CCN(CC4CC(F)(F)C4)C[C@H]3C)c(-c3nc(C)no3)c(C)c2c1 [Compound 59]
Result :: 7.00 to 8.00

Query :: Short answer please: pIC50, kappa opioid receptor (KOR) (Homo sapiens), entry CCc1cc(F)c2nc(N3CCN(C(=O)[C@@H]4COCCN4C)C[C@H]3C)c(-c3nc(C)no3)c(C)c2c1 [Compound 185]
Result :: 7.00 to 8.00

Query :: Record CCc1cc(F)c2nc(N3CCN(C(=O)[C@@H]4CCCCN4C)C[C@H]3C)c(-c3nc(C)no3)c(C)c2c1 [Compound 188] : what is its pIC50 with kappa opioid receptor (KOR) (Homo sapiens)?
Result :: 7.00 to 8.00

Query :: Request body: readout pIC50, system kappa opioid receptor (KOR) (Homo sapiens), query CCc1cc(F)c2nc(N3CCN(CC4(F)CCOCC4)C[C@H]3C)c(-c3nc(C)no3)c(C)c2c1 [Compound 207] . Return the value.
Result :: 8.00 to 9.00

Query :: Enter reported pIC50 observed with kappa opioid receptor (KOR) (Homo sapiens) for CCc1cc(F)c2nc(N3CCN(C4CCOCC4)C[C@@H]3C)c(-c3nc(C)no3)c(C)c2c1 [Compound 27]
Result :: ≤ 7.00

Source: patent US20260115185A1
